I'd appreciate it if you could supply apparent KD of MS2 coat protein values for the items below.
Test system: MS2 coat protein
Assay: apparent KD of MS2 coat protein; designed switch direction (-1 OFF switch, 1 ON switch): 1; higher = weaker reporter binding
Conditions: input ligand: FMN 200 uM
Number only, in nM; omit the unit.

Exercise: Annotate the sequence AACAUGAGGAUCACCCAUGUCAGGCCGCCGGCCUACAUGAGGAAGGAUAUAGCCUCGAAAAUAGGCUAGAAGGUCCUCAUGAAU [Orises] (Eterna round: R96, puzzle: Same State NG 3) with its measured apparent KD of MS2 coat protein.
Solution: 78.6

Exercise: Annotate the sequence UAACAGUACAAUUUAGAUCUACAUGAGGAUCACCCAUGUACUGAGGAUAUCAGCUCGAAUAGAGCUGAGAAGGCAGAAGAACUA [SSNG3/11-A1] (Eterna round: R96, puzzle: Same State NG 3) with its measured apparent KD of MS2 coat protein.
Solution: 35.8

Exercise: Annotate the sequence GGAGCCGGCACCGAGGAUAUUCAUAUUAAAACAUGAGGAUCACCCAUGUAGCUCGAAAGAGCUUGGGAGAAGGCGGAUCGGCUCG [Xeonanis - 29] (Eterna round: R96, puzzle: Same State 2) with its measured apparent KD of MS2 coat protein.
Solution: 37.3

---

Tested on: MS2 coat protein
Test: apparent KD of MS2 coat protein; designed switch direction (-1 OFF switch, 1 ON switch): 1; higher = weaker reporter binding
Settings: input ligand: FMN 200 uM
value-type: apparent KD of MS2 coat protein

Exercise: State, for MS2 coat protein, measured apparent KD of MS2 coat protein of the sequence listed here: AUUAGUUAUGCAGGAUAUGAUUAACAUGAGGAUCACCCAUGUGGUGUUGUGAGUAAGGAGAGUGAUCAGAAGGGCAUUUUUUUU [JMF's solution 67] (Eterna round: R96, puzzle: Same State NG 2)
Solution: 0.462 µM

Exercise: State, for MS2 coat protein, measured apparent KD of MS2 coat protein of the sequence listed here: AGCAAAGCGACAGGAUAUGGUAAGGAUCUCUUACCAGAAGGGUCAAGUGCAUGACAUGAGGAUCACCCAUGUAGGUUGUUUACC [Eternabot solution 44] (Eterna round: R96, puzzle: Same State NG 1)
Solution: 0.0182 µM

Exercise: State, for MS2 coat protein, measured apparent KD of MS2 coat protein of the sequence listed here: GUGCAAAUCAUAGGAUAUGGGCGGGAAUGCCGUCCAGAAGGAUGAACAUGAGGAUCACCCAUGUCCAGCCGCAAAUACGCGGCC [Sodirien] (Eterna round: R96, puzzle: Same State NG 1)
Solution: 0.0938 µM

Exercise: State, for MS2 coat protein, measured apparent KD of MS2 coat protein of the sequence listed here: CUUAACAGAGGAGGAUAUGCAGAGGAUCACCCUGUAGAAGGCCACAGAGGAGGAUAUGCAGAGGAUCACCCUGUAGAAGGCCAC [pwkr ssNG DX.8] (Eterna round: R96, puzzle: Same State NG 1)
Solution: 0.622 µM

Exercise: State, for MS2 coat protein, measured apparent KD of MS2 coat protein of the sequence listed here: CUGAGAUGUCAAGGAUAUCACGUCGAUUAGACGUGAGAAGGUGAUCUGCACAUGAGGAUCACCCAUGUGUUACAUGGAAUUCAG [Brourd's SSNG1/1-A2 mod 12] (Eterna round: R96, puzzle: Same State NG 1)
Solution: 0.567 µM

---

I'd appreciate it if you could supply apparent KD of K4 kissing-loop reporter values for the items below.
Tested on: K4 kissing-loop RNA reporter;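 also: bound reporter read as fluorescence of individual clusters on recovered sequencing chips by microscopy, with normalized cluster intensities fitted with a binding model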
Assay: apparent KD of K4 kissing-loop reporter; higher = weaker reporter binding
Details: Eterna round: R107; input ligand: none
Number only, in µM; omit the unit.

Exercise: Annotate the sequence UGUCAUUGGUCGGCCGCCACUUCAUAAAGAGUGAUGUUCUUAAAGACGGAUCGAAAGAUCUGUCGAAGGACCGGGACCGAUGACU [FiskerMod 8 - Jieux - Same State - Tryptophan B] with its measured apparent KD of K4 kissing-loop reporter.
Solution: 1.5

Exercise: Annotate the sequence UUUGGUUUCUCGGCCGCCACUCGUUGUCUAUGGGCUUCAGGGAUAUAGUGAUGUUAUGUAUAGAAGAGGACCGGGAGAAGGUUUU [ExTryptoB.Dv] with its measured apparent KD of K4 kissing-loop reporter.
Solution: 0.683

Exercise: Annotate the sequence "GCCGUACGCAUGGAUACCAGAUGGCACUAUAAUCUACCAGAGUGAUGUUCUGGCCUGCCCAUCCCUUGGCAGCCAUGCGUACGGC" with its measured apparent KD of K4 kissing-loop reporter.
Solution: 0.287

Exercise: Annotate the sequence UGGACCAGGAGUGAUGUUCCAAAAUGUGAUACCAGCCACGAAAGUGGCCCUUGGCAGCACUGCCAGGACGAAAACGUCCGGUCCU [#SwitchBubble 11 #StaticStem #K4Early] with its measured apparent KD of K4 kissing-loop reporter.
Solution: 0.278

Exercise: Annotate the sequence GGGAGGAGUGGUGUUGAUUAAGAAGCGGAAGGAGCGCCGAAGAAGGCAGGUAGGUCGCCGAAAUAUAGUGAUGUUAUAUAAAGGG [ExArg.C] with its measured apparent KD of K4 kissing-loop reporter.
Solution: 0.281

Exercise: Annotate the sequence AAUACAGUGUCGGCCGCCACUGUAACAUGCCAUGAGACAUGAGACAUGAGUGAUGUUCAUGUAGACAGGACCGGGACUCAUGUAU [KL-SSTryp-B3 #analogue] with its measured apparent KD of K4 kissing-loop reporter.
Solution: 0.455

Exercise: Annotate the sequence GAAUGAAAUAUCUGGCCCUAUCAGAAUUGGAAGGAUAUGACGGUCAUCAGAAGGUCCAACUCGUAGUGAUGUUGCGGGUUUUAAA [theeternabot_exclusion_KL_FMN_A_21] with its measured apparent KD of K4 kissing-loop reporter.
Solution: 0.0414

Exercise: Annotate the sequence AUUCUAUUGUGAAGGAGCGCGUAUAGUAGUGAUGUUACUAUAAUAAUAGAUAUUUAAUUCUCGCAGGUAGGUCGCACAAUAUAUA [JR_Nu_ExcArginiB_Sub025] with its measured apparent KD of K4 kissing-loop reporter.
Solution: 0.0963

Exercise: Annotate the sequence ACCGCAUUGGGAUGAUCCCAAUGCGCUGGUCGAGGACCGGUACGGCCGCCACUCGUCCAGUGAUGUUGGACUAGGGCAACUGAAG [Bileesma] with its measured apparent KD of K4 kissing-loop reporter.
Solution: 0.261

Exercise: Annotate the sequence GGAUCCACCAGUGAUGUUGGAGAAAACUCUAAGGAUAUGACGAAAGUCAGAAGGUAGUAGACUGGACAAAGUCCGGUCGGAUCCA [FmnA 23 U30+A56] with its measured apparent KD of K4 kissing-loop reporter.
Solution: 1.19

Exercise: Annotate the sequence "AAAAUAAUCCAGUGAUGUUGGUAUGCAGAUACCAGCGACGAAAGUCGCCCUUGGCAGCUGUGGACGUACAAAAUAAGUACGUCCU" with its measured apparent KD of K4 kissing-loop reporter.
Solution: 0.933

Exercise: Annotate the sequence AAAUUUAAUAUAUUUAAUUAAUUAUGUGAUACCAGACAUUUAUAAGUCCCUUGGCAGCACUUUGCAGUGAUGUUGCAUAUAAUAA [JR_SSTheophyA_Sub013] with its measured apparent KD of K4 kissing-loop reporter.
Solution: 0.121

Exercise: Annotate the sequence UGUCAUGGAAACAUGAACGUUAAAAUAAAUCGAGGACCGGUACGGCCGCCACUCGUAUAGCGGUCAGUGAUGUUGACUGUAAUAA [KL-SSTryp-A form2 sub10] with its measured apparent KD of K4 kissing-loop reporter.
Solution: 0.11

Exercise: Annotate the sequence UAUUAAUAUUUUUCAGUGAUGUUAAUUGAUACCAGCCCGAAACCGGGCCCUUGGCAGCGAGUGAUGUUGGUUGUCAGCAUAAAUA [KL-XTheo-A13] with its measured apparent KD of K4 kissing-loop reporter.
Solution: 0.836

Exercise: Annotate the sequence UGUUUUUUUUUGAUGUUUGUUGUAAAAUGGCAGGAUAUCGUAGAGGCGAGAAGGGCUUUUAUGCGUUAUGAGUGAUGUUUGUAGG [vevvmullin] with its measured apparent KD of K4 kissing-loop reporter.
Solution: 0.381

Exercise: Annotate the sequence AAUAAAAUCACGGCCGCCACUGAUGCUAAUAUUAGCAGUGAUGUUGCUAUGUAUAUUUUAUUUAACAGGACCGGGUGAAUAUUUA [JR_ExcTryptoB_Sub014] with its measured apparent KD of K4 kissing-loop reporter.
Solution: 0.228

Exercise: Annotate the sequence AAAACUCAUGGCUUAUAUCCGUGUCUCGAAGGAGCGUACAGCGGUACAGGUAGGUCGCGAGACAUGAGUGAUGUUCAUGUGUAAA [KL-XArg-A6 #analogue] with its measured apparent KD of K4 kissing-loop reporter.
Solution: 0.129

Exercise: Annotate the sequence GCAUGACGGUAAGGAUAUAGAUAAUCCUUAUAUACGUCGAGUGAUGUUCGAUGUGCCAAGGCACAUCUAGAAGGUACUGUUAGGU [Same State FMN B GF 18] with its measured apparent KD of K4 kissing-loop reporter.
Solution: 1.02

Exercise: Annotate the sequence UCUGGUAUAUCUGAUACCAGAGUAUAGUAUCAAUUGCAUAUCCGCAGUGAUGUUGCGGAACUCCCUUGGCAGCAGAUCUAUCUCU [Same State Theophylline B GF 26] with its measured apparent KD of K4 kissing-loop reporter.
Solution: 0.0818

Exercise: Annotate the sequence GGUAUCCAGUACCAUUGCGUUAAAACAGAAGGAGCGAGUAUGGACUCAGGUAGGUCGCUGUUUAUAGUCGAGUGAUGUUCGAAUC [Same State Arginine A GF 15] with its measured apparent KD of K4 kissing-loop reporter.
Solution: 0.281

Exercise: Annotate the sequence UAAUAUACGAGUGAUGUUCGUUAUUUAUCAGAGGAUAUGCUUAAAUGCAGAAGGCUGUUUUUCUAAUUGAUAUUAAAUUUUUUUA [JR_Nu_ExcFMNA_Sub028] with its measured apparent KD of K4 kissing-loop reporter.
Solution: 0.074

Exercise: Annotate the sequence "AGUCCACUCUAAAGAGUGGACCUAAGGGAUACCAGUGAUGUUGGUCACCCUUGGCAGCCCUCUGUCAUCGAUAAAGAUGGCAGGA" with its measured apparent KD of K4 kissing-loop reporter.
Solution: 0.113

Exercise: Annotate the sequence AGUUCUUGCCGAAGGAGCGAGGCAGAGUGAUGUUCUGCAAAGGUCGAAAGACCUUAACUGCCUCAGGUAGGUCGCGGCAUGAACA [KL-XARG-B23] with its measured apparent KD of K4 kissing-loop reporter.
Solution: 0.624
